# Test system: HCT-116 colon
# Test description: NCI tumour cell line growth inhibition, 48 h
Property name: TGI (µM)

Molecule	Unit label	Comparative sign	Value measured
CCC(=C/[C@H](C)C/C=C/C(C)=C/[C@@H](C)C(=O)[C@@H](C)[C@H](O)[C@@H](C)CC)/C=C/[C@H]1OC(=O)C=C[C@H]1C	µM	=	0.0102
CC(C)NCC(O)c1ccc(OCc2ccccc2)c(OCc2ccccc2)c1-c1ccccc1 (stereo not given)	µM	=	3.17
CCN(CC)C(=O)COc1ccc(Br)cc1Br	µM	>	100
NC1=N/C(=C2/CCNC(=O)c3[nH]c(Br)cc32)C(=O)N1	µM	>	100
N#CC1=C(N)OC(c2ccc([N+](=O)[O-])cc2)C1(C#N)C#N (stereo not given)	µM	=	34.8
O=C1OC(O)C(Oc2ccc(Cl)cc2)=C1Cl (stereo not given)	µM	>	100
CCCCCCCC[N+](C)(CCCCCCCC)CCCCCCCC	µM	=	1.24
Clc1c(Cl)c2c(Cl)c(Cl)c1C[P+](c1ccccc1)(c1ccccc1)CC[P+](c1ccccc1)(c1ccccc1)Cc1c(Cl)c(Cl)c(c(Cl)c1Cl)C[P+](c1ccccc1)(c1ccccc1)CC[P+](c1ccccc1)(c1ccccc1)C2	µM	=	9.71
O=C(/C=C/c1ccco1)CC(=O)/C=C/c1ccco1	µM	=	17.4
Cc1[nH]c(=O)nc(NCCNCCO)c1C(=O)Nc1c2ccccc2nc2ccccc12	µM	>	100
CC(=O)N=c1ccc2nc3c(cc(N)c4ccccc43)oc-2c1	µM	=	1.24
CC(C)(C)C(=O)C(C(c1ccccc1)N1CCOCC1)N1CCOCC1 (stereo not given)	µM	>	100
CC1CCC2C(C(=O)O[C@H]3C4CCO[C@@H](OC5OC(CO)C(O)C(O)C5O)C4[C@@]4(CO)O[C@@H]34)=CO[C@@H](OC3OC(CO)C(O)C(O)C3O)C12 (stereo not given in full)	µM	>	10
CCCN(CCC)c1ccc(/C=N/NC(=O)c2cccnc2)c(Cl)c1	µM	=	16
O=[N+]([O-])c1cc(-[n+]2cc([O-])on2)ccc1F	µM	=	28.6
Cn1cc(C2=C(c3cn(CCN)c4ccccc34)C(=O)NC2=O)c2ccccc21	µM	>	25
Cc1ccc(S(=O)(=O)OC2C(C3COC(C)(C)O3)OC3OC(C)(C)OC32)cc1 (stereo not given)	µM	>	100
Cc1n[nH]c(=O)n1/N=C/c1c[nH]c2ccccc12	µM	>	100
CN(C)CCCc1c[nH]c2ccccc12	µM	>	100
CC(C)=CC(=O)Cc1nc2cc(C)c(C)cc2[nH]c1=O	µM	>	100

###

# Tested on: NCI-H522 lung
# Test description: NCI tumour cell line growth inhibition, 48 h

Molecule	Comparative sign	TGI (µM)
COc1ccc2c(c1)N=C1CSC(c3cc([N+](=O)[O-])ccc3Cl)N1C2 (stereo not drawn)	=	57
Oc1c(C2=N[C@H]3CCCC[C@@H]3N2)ccc2ccccc12	>	100
COC1=CC(c2ccc[nH]2)=N/C1=C\c1[nH]c(C)c(C(=O)CCCCC(=O)Nc2ccccc2)c1C	=	3.46
CCOP(=O)(C=C=C(C)C)OCC	>	100
CC#C[I+]c1ccccc1	=	13.1
Nc1nc2nc[nH]c2c(=O)[nH]1	>	100
Nc1ccn(C2CC(CO)C(O)C2O)c(=O)n1 (stereo not drawn)	>	57.7
Oc1ccc(Cn2c(-c3ccc(O)c(O)c3)nc3ccccc32)cc1O	=	17.1
COc1cccc(/C=C2\CCCCCC2=O)c1	>	100
O=c1ccn2n1CCCCC2	>	100
COC(=O)[C@]1(C)CCC[C@@]2(C)C1CCC1=CC3(C(C)C)CCC12OO3 (stereo partly drawn)	>	100
Nc1c(-c2ccc(Cl)cc2Cl)[n+]([O-])c2ccccc2[n+]1[O-]	>	100
Cn1c(-c2ccc(/C=N\N3CCN(/N=C/c4ccc(-c5c[n+]6ccsc6n5C)cc4)CC3)cc2)c[n+]2ccsc12	>	100
COC(=O)C(Cc1ccccc1)OC(=O)C(N)CC(=O)O (stereo not drawn)	>	100
COc1ccc(/C(C)=N/OC(=O)c2c(-c3ccccc3Cl)noc2C)cc1CN1CCOCC1	=	48.3
COc1cc(/C=C2\COc3ccc(O)c(O)c3C2=O)cc(OC)c1	=	0.403
O=[N+]([O-])c1cc(-[n+]2cc([O-])on2)ccc1F	=	22.2
O=C(/C=C/c1ccco1)CC(=O)/C=C/c1ccco1	=	14.1
CC(C)(C)c1ccc(C(O)c2ccc(C(C)(C)C)cc2)cc1	=	22
CCOC(=O)c1sc(Nc2ccc(Cl)cc2)nc1C	=	3.57
Cc1ccccc1C(C#N)C(=O)C(=O)Nc1cccc(Cl)c1 (stereo not drawn)	>	100
CCC(=C/[C@H](C)C/C=C/C(C)=C/[C@@H](C)C(=O)[C@@H](C)[C@H](O)[C@@H](C)CC)/C=C/[C@H]1OC(=O)C=C[C@H]1C	<	0.01
NC1=NNC2(C(N)=N1)c1ccccc1-c1ccccc12	>	10

###

# Tested on: U251 CNS
# Test description: NCI tumour cell line growth inhibition, 48 h

Molecule	TGI
COC1=CC(c2ccc[nH]2)=N/C1=C\c1[nH]c(C)c(C(=O)CCCCC(=O)Nc2ccccc2)c1C	2.56 µM
CC(CO)C1=CC(C#CCOCc2ccccc2)N(C(=O)Oc2ccccc2)c2ccccc21 (stereo not drawn)	> 100 µM
CCOC(=O)c1c(C(F)(F)F)n([O-])c2ccc(OC)cc2[n+]1=O	> 100 µM
O=[N+]([O-])c1cc(Cl)cc2cc(Cl)cnc12	> 100 µM
Nc1nc2nc[nH]c2c(=O)[nH]1	> 100 µM
CCCCCCCCCCCCCCCCOCC(COP(=O)([O-])OCC[N+](C)(C)C)OCCCCCCCCCCCCCCCC (stereo not drawn)	> 100 µM
NCCC(O)(P(=O)(O)O)P(=O)(O)O	> 100 µM
COC(=O)C1(Cc2ccccc2)Cc2ccc3c(c2C1=O)CCC3 (stereo not drawn)	> 100 µM
Cc1ccc(S(=O)(=O)OC2C(C3COC(C)(C)O3)OC3OC(C)(C)OC32)cc1 (stereo not drawn)	> 100 µM
COc1ccc2c(c1)N=C1CSC(c3cc([N+](=O)[O-])ccc3Cl)N1C2 (stereo not drawn)	71.2 µM
c1ccc(/N=N/Nc2ccc(-c3nc4ccccc4[nH]3)cc2)nc1	30.1 µM
CN(/N=C/C=N/N(C)C1=NCCCCN1)C1=NCCCCN1	> 100 µM
CC(=O)Oc1ccccc1C(=O)O	> 100 µM
Cc1ccc(S(=O)(=O)N2CCc3ccc(O)c4c3C2Cc2cc(Cl)ccc2-4)cc1 (stereo not drawn)	3.77 µM
Cn1c2ccccc2c(=NNc2ccccc2C(=O)O)c2ccccc21	34.6 µM
CC#C[I+]c1ccccc1	29.1 µM
ClC1=C(Cc2ccccc2)Cc2ccc3c(c21)CCC3	39.3 µM
CCOC(=O)c1sc(=S)c2c(C(=O)OCC)c(C(=O)OCC)sc2c1C(=O)OCC	26.5 µM
O=C(OC(=C(c1ccccc1)c1ccccc1)N1CCCC1=S)C(c1ccccc1)c1ccccc1	> 10 µM
Cc1[nH]c(=O)nc(NCCNCCO)c1C(=O)Nc1c2ccccc2nc2ccccc12	> 100 µM
CC(C)=CC(=O)Cc1nc2cc(C)c(C)cc2[nH]c1=O	> 100 µM
COc1cccc(/C=C2\CCCCCC2=O)c1	> 100 µM
O=C1OC(O)C(Oc2ccc(Cl)cc2)=C1Cl (stereo not drawn)	> 100 µM

###

# Test system: DMS 114 small cell lung
# Test description: NCI tumour cell line growth inhibition, 48 h

Compound	TGI
CN(C)CCNC(=O)c1cccc2[nH]c(-c3ccccc3)nc12	32.3 µM
CN(C)CC1(C)CC/C(=C\c2ccccc2)C1=O (centres undefined)	> 100 µM
CO[C@@H]1[C@H](OC(=O)NC(=O)CCl)CC[C@]2(CO2)[C@H]1[C@@]1(C)O[C@@H]1CC=C(C)C	23.4 µM
CC1C=CC(=O)C(n2cc(F)c(=O)[nH]c2=O)O1 (centres undefined)	31.5 µM
CC(C)(C)C(=O)C1CC(=O)c2ccccc2C1=O (centres undefined)	> 100 µM
O=C(COc1ccccc1)NS(=O)(=O)c1ccccc1	> 100 µM
O=C(Nc1c(O)[nH]c(=S)[nH]c1=O)c1ccc2ccccc2n1	> 100 µM
Cc1ccc(Cl)c(NC(=O)C(=O)C(C(=O)c2ccncc2)C2OC(=O)c3ccccc32)c1 (centres undefined)	> 100 µM
Cc1cc(Cl)cc2c1NC(=O)C2(O)C(C)C(=O)c1ccc(Cl)cc1 (centres undefined)	> 96.6 µM
CC(C)(C)c1ccc(C(O)c2ccc(C(C)(C)C)cc2)cc1	25.7 µM
c1ccc(CN(Cn2cccn2)Cn2cccn2)nc1	> 100 µM
CC(C)[C@](O)(C(=O)OCC1CC[N+]2([O-])CC[C@@H](O)C12)[C@H](C)O (some centres undefined)	> 375 µM
O=C1CCC2(CC1)SCCCS2	> 100 µM
CC#C[I+]c1ccccc1	26.3 µM

Where do these numbers come from? They come from PubChem BioAssay (NCI).
